Each recorded value in this set is attributed to PubChem BioAssay (NCI).

System: COLO 205 colon
ASSAY OVERVIEW: NCI tumour cell line growth inhibition, 48 h
OUTCOME MEASURE: TGI

Sample answers from the record:
{"MOLECULE": "CCOC(=O)C1Nc2ccc([N+](=O)[O-])cc2[C@H]2OCC[C@@H]12 (stereo partly specified)", "TGI": "> 100 µM"}
{"MOLECULE": "NC(N)=NS(=O)(=O)c1ccc(NC(=O)c2cccn3c(=O)c4ccccc4nc23)cc1", "TGI": "34 µM"}
{"MOLECULE": "Cc1ccc2c(=O)cc(-c3cc4ccccc4s3)[nH]c2n1", "TGI": "> 100 µM"}

Each molecule below has a recorded value; state its TGI.
1. O=c1ncc(I)c[nH]1
2. CC(C)C(C)C(O)C(O)C(C)C1CCC2C3COC(=O)C4CC(O)C(O)CC4(C)C3CCC12C (stereo unspecified)
3. CC(=O)N(CN1C(=O)CCC1C(=O)O)c1ccc(C)cc1 (stereo unspecified)
4. O=C1OCCC12CN(Cc1ccccc1)N=N2 (stereo unspecified)
5. S=C(Nc1ccc(Cl)cc1)c1ccc(CN2CCCCC2)s1
6. Clc1cc2nc[nH]c2cc1Cl

["> 100 µM", "> 100 µM", "> 100 µM", "> 100 µM", "14.2 µM", "> 100 µM"]

Each molecule below has a recorded value; state its TGI.
1. [O-]c1ccccc1[C-]=Nc1ccccc1O.[O-]c1ccccc1[C-]=Nc1ccccc1O.[O]=[U]=[O]
2. CCOC(=O)c1ccc(OCc2nc3cc(C(F)(F)F)ccc3nc2-c2ccccc2)cc1

51.6 µM
> 100 µM

Each molecule below has a recorded value; state its TGI.
1. Cc1cc(N(CCC#N)CCC#N)ccc1/C=C(\NC(=O)/C=C/c1ccccc1)NC(=O)Nc1ccccc1C
2. O=c1oc2cc(O)ccc2c(O)c1C(c1ccc2ccccc2c1)c1c(O)c2ccc(O)cc2oc1=O

1. > 100 µM
2. > 100 µM

----------
Tested on: NCI-H522 lung
ASSAY OVERVIEW: NCI tumour cell line growth inhibition, 48 h
Consider the following molecules; for each one, report its TGI.
One number for each entry, in µM.

{"MOLECULE": "S=C(Nc1ccc(Cl)cc1)c1ccc(CN2CCCCC2)s1", "TARGET": "NCI-H522 lung", "RESULT UNIT": "µM", "TGI": 75}
{"MOLECULE": "COc1cc(/C=C2/CCCc3ccccc3C2=O)cc(OC)c1OC", "TARGET": "NCI-H522 lung", "RESULT UNIT": "µM", "TGI": 41}
{"MOLECULE": "COc1ccc2c(c1)O/C(=C\\c1ccc([N+](=O)[O-])o1)C2=O", "TARGET": "NCI-H522 lung", "RESULT UNIT": "µM", "TGI": 2.57}
{"MOLECULE": "Nc1c(C(=O)c2ccc(Cl)cc2)[nH]c(Nc2ccc(Cl)cc2)c1C(=S)Nc1ccccc1", "TARGET": "NCI-H522 lung", "RESULT UNIT": "µM", "TGI": 20.3}
{"MOLECULE": "CCCCCCCCCCCCCCCCOP(=O)(O)OP(=O)(O)OCC1OC(n2cnc3c(N)ncnc32)C(O)C1O (stereo not given)", "TARGET": "NCI-H522 lung", "RESULT UNIT": "µM", "TGI": 92.8}

Each molecule below has a recorded value; state its TGI.
1. C[C@@]1([C@H](OC(=O)c2cccc3ccccc23)C(N)=O)CO1
2. CN(C)CCn1c2c(c3ccccc31)CCc1ccccc1-2

1: 6; 2: 29.4

----------
Tested on: RXF 393 renal
ASSAY OVERVIEW: NCI tumour cell line growth inhibition, 48 h
OUTCOME MEASURE: TGI

Sample answers from the record:
{"COMPOUND": "COc1ccc(/C=C(/C(=O)N2CCN(c3ccc(C)cc3)CC2)c2cc(OC)c(OC)c(OC)c2)cc1N", "OUTCOME MEASURE": "TGI", "RESULT VALUE": "> 100 µM"}
{"COMPOUND": "O=C1CC(C(O)C(O)C(O)CO)CC(=O)N1 (stereo not drawn)", "OUTCOME MEASURE": "TGI", "RESULT VALUE": "> 100 µM"}

Value wanted: TGI (RXF 393 renal) of entry `COc1ccc(C(=C(C#N)C#N)c2ccc(OC)cc2)cc1`
> 100 µM

----------
Test system: MCF7 breast
ASSAY OVERVIEW: NCI tumour cell line growth inhibition, 48 h
OUTCOME MEASURE: TGI

Each compound below has a recorded value; state its TGI.
1. Nc1ccc([As](=O)(O)O)cc1
2. COc1ccccc1CN=C1NC(=O)/C(=C/c2ccc3ncccc3c2)S1
3. O=P1(N(CCCl)CCCl)Oc2c(Cl)cc(Cl)c(Cl)c2Cc2c(Cl)c(Cl)cc(Cl)c2O1
4. Clc1ccc(-c2c3nc(c(-c4ccc(Cl)cc4)c4ccc([nH]4)c(-c4ccc(Cl)cc4)c4nc(c(-c5ccc(Cl)cc5)c5ccc2[nH]5)C=C4)C=C3)cc1
5. Cn1c(=O)c2c(nc(N3CCOCC3)n2CCCNCC(O)c2ccc(O)c(O)c2)n(C)c1=O (centres undefined)
6. CCCCCCCCCCCCCCCCCc1cc(Cl)nc(Cl)n1

> 100 µM
> 25 µM
> 100 µM
> 100 µM
> 100 µM
> 100 µM

Each compound below has a recorded value; state its TGI.
1. CC(SC(=S)N(C)C)C(=O)Nc1nnc(-c2ccc(Cl)cc2)o1 (centres undefined)
2. CCCCCCCCCCCCCCCCSS(C)(=O)=O
3. COc1ccc(-c2c(-c3cc4c(c(OC)c3OC)OCO4)noc2N)cc1

1. > 100 µM
2. > 100 µM
3. > 77.5 µM

----------
Consider the following molecules; for each one, report its TGI.
System: NCI-H23 lung
ASSAY OVERVIEW: NCI tumour cell line growth inhibition, 48 h
Where a SMILES comes first, the peptide text is derived from it. [ ]: non-standard residue; d: D form. The star is where a group is joined. Bn2Val = CC(C)[C@@H](C(=O)*)N(Cc1ccccc1)Cc1ccccc1; NHPiperonyl = c1cc2c(cc1CN*)OCO2; NMeV = CN[C@H](C(=O)O)C(C)C; dNMeA = CN[C@H](C)C(=O)O

Sample answers from the record:
{"MOLECULE": "C[C@]12CC[C@H](OC(=O)Cc3ccc(N(CCCl)CCCl)cc3)CC1CC[C@@H]1C2CC[C@]2(C)NC(=O)CCC12 (stereo partly specified)", "RESULT VALUE": "35.4 µM"}
{"MOLECULE": "CCN1C(=O)/C(=C\\c2coc3ccccc3c2=O)SC1=S", "RESULT VALUE": "> 100 µM"}
{"MOLECULE": "Cc1ccccc1NC(=O)N/C(N)=N/c1nc(C)c(C)s1", "RESULT VALUE": "> 100 µM"}
{"MOLECULE": "CC1OC1P(=O)(O)O (stereo unspecified)", "RESULT VALUE": "> 100 µM"}
{"MOLECULE": "CC(=O)O[C@H]1C[C@H]2[C@@H]([C@H](OC(C)=O)C[C@@H]3CC4(CC[C@@]32C)OOC2(CCCCC2)OO4)[C@@H]2CC[C@H]([C@H](C)CCC(N)=O)[C@@]12C", "RESULT VALUE": "2.83 µM"}

Each molecule below has a recorded value; state its TGI.
1. Cc1cccc(C)c1NC(=O)C(=O)C(c1ccccc1Cl)S(=O)(=O)Cc1ccccc1Cl (stereo unspecified)
2. Nc1nc(=O)c2[nH]cnc2n1O
3. Cc1ccc(N/N=C/C2=CC(C)(C)C(C#N)(C#N)C(O)=C2C#N)cc1
4. COC(=O)C12OCC34C(CC5C(C)C6=CC(=O)OC6=CC5(C)C3C(O)C1O)OC(=O)C(OC(C)=O)C24 (stereo unspecified)
5. CC(C)[C@H](NC(=O)[C@H](C(C)C)N(Cc1ccccc1)Cc1ccccc1)C(=O)N(C)[C@H](C(=O)N1CCC[C@H]1C(=O)N(C)[C@H](C)C(=O)NCc1ccc2c(c1)OCO2)C(C)C (Bn2Val-V[NMeV]P[dNMeA]-NHPiperonyl)
6. O=c1ncc(I)c[nH]1

1. > 76.9 µM
2. > 100 µM
3. > 100 µM
4. 32.5 µM
5. > 100 µM
6. > 100 µM

----------
System: OVCAR-3 ovarian
ASSAY OVERVIEW: NCI tumour cell line growth inhibition, 48 h
OUTCOME MEASURE: TGI

Sample answers from the record:
{"MOLECULE": "COc1ccc(C(=O)OC2C(OC3C(O)COC(O[C@H]4C[C@H]5[C@@H]6CC=C7C[C@@H](O)CC[C@]7(C)[C@H]6CC[C@]5(C)[C@H]4[C@H](C)C(=O)CCC(C)C)C3OC(=O)C(C)C)OCC(O)C2O)cc1 (stereo not given in full)", "TARGET": "OVCAR-3 ovarian", "TGI": "5.88 µM"}
{"MOLECULE": "CCOc1ccc(NC(=O)/C(Cc2nc3ccccc3[nH]c2=O)=N\\O)cc1", "TARGET": "OVCAR-3 ovarian", "TGI": "> 100 µM"}
{"MOLECULE": "S=C(Nc1ccc(Cl)cc1)c1ccc(CN2CCCCC2)s1", "TARGET": "OVCAR-3 ovarian", "TGI": "> 100 µM"}
{"MOLECULE": "CC(C)COC(=O)N1N=NC2C3CC(=O)C(O3)C21 (stereo not given)", "TARGET": "OVCAR-3 ovarian", "TGI": "> 100 µM"}

Would you kindly look at the next entry?
May I ask what TGI has been recorded for `COc1cccc([C@@H]2C/C(=N\NC(=O)C(=O)N[C@@H](C)c3ccccc3)c3cc4c(cc3N2)OCO4)c1` ?
> 100 µM
